Organism: Homo sapiens
Assay: Selectivity ratio Ki for recombinant full length PKC delta (unknown origin) to Ki for human recombinant full length His-tagged PKC theta
measured_parameter: Ratio Ki

[[record]]
compound = "CCC(C)(CN)c1cccc(-c2ccnc3[nH]nc(C(F)(F)F)c23)c1 (stereo not drawn)"
measured_parameter = "Ratio Ki"
observed_measurement = 25

[[record]]
compound = "NCC1(c2cccc(-c3ccnc4[nH]ncc34)c2)CCOCC1"
measured_parameter = "Ratio Ki"
observed_measurement = 111

[[record]]
compound = "CCCc1cc(-c2ccnc3[nH]ncc23)cc(C(C)(CC)CN)c1 (stereo not drawn)"
measured_parameter = "Ratio Ki"
observed_measurement = 39

[[record]]
compound = "CCC(C)(CN)c1cc(C)cc(-c2ccnc3[nH]ncc23)c1 (stereo not drawn)"
measured_parameter = "Ratio Ki"
observed_measurement = 24

[[record]]
compound = "NCC1(c2cccc(-c3ccnc4[nH]ncc34)c2)CCC1"
measured_parameter = "Ratio Ki"
observed_measurement = 18


[A] CCc1cc(-c2ccnc3[nH]ncc23)cc(C(C)(CC)CN)c1 (stereo not drawn)
[B] CC(C)(CN)c1cccc(-c2ccnc3[nH]ncc23)c1
Request: For the two items A and B , which reports the higher Ratio Ki value? In your reply, give the label of the chosen option.
Result: A
(A: 39, B: 16)
